B1: LINE1-full (parent)
chain: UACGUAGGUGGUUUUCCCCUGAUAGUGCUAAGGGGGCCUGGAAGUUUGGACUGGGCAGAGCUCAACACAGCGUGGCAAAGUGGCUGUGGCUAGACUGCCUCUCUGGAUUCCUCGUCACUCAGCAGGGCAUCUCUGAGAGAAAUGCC

# Variants of: B1
# assaySummary: self-cleavage, relative activity (ratio to wild type); higher = more cleavage; in vitro, sequencing; the parent is a self-cleaving ribozyme
readout: self-cleavage
Lab note: write the figure by itself, no unit.

Consider the reported self-cleavage for these variants:
sequenceChange | self-cleavage
G53U U87A | 0.05
G48A U91C | 0.09
U14A G144A | 1.12
A42G G135A | 1.69
A78G C98U | 0.47
A42U A50G | 0.92

Q) Which self-cleavage value belongs to A50U U62A ?
A) 0.01
